Cited source: patent US20250042957A1

Could you please report measured Kd for the items listed next?
Target: T1, CD3-specific binding domain (SEQ ID NO: 3) (biotinylated when used as immobilized SPR ligand (site not stated))
T1 construct: also called α-CD3 DARPin
T1 chain: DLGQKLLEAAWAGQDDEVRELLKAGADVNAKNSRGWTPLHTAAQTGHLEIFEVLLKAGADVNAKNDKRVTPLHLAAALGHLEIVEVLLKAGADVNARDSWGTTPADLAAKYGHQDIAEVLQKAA
Test: SPR (ProteOn), biotinylated CD3-specific binding domain immobilized, multi-trace 50-0.195 nM, 25 C
Answers are plain numbers, in nM.

The cases that follow already have their Kd on record.
- binder: "2-in-1 DARPin 11 (SEQ ID NO: 6) (designed binder, N3C mono-domain; purified by its His-tag) DLDKKLLEAARAGQDDEVRILLKAGADVNAKDSTGWTPLHLAAPWGHPEIVEVLLKAGADVNAKDVYGWTPLHIAAASGHLEIVEVLLKAGADVNAKDWLGWTPLHLAASHGHLEIVEVLLKAGADVNAQDKSGKTPADLAARAGHQDIAEVLQKAA"
  reported-metric: "Kd"
  number: 0.96
- binder: "2-in-1 DARPin 20 (SEQ ID NO: 13) (designed binder, N4C mono-domain; purified by its His-tag) DLDKKLLEAARAGQDDEVRILLKAGADVNAKDSTGWTPLHLAAPWGHPEIVEVLLKAGADVNAKDFQGWTPLHLAAAAGHLEIVEVLLKAGADVNAKDVYGWTPLHLAAAAGHLEIVEVLLKAGADVNAKDWLGWTPLHLAASHGHLEIVEVLLKAGADVNAQDKSGKTPADLAARAGHQDIAEVLQKAA"
  reported-metric: "Kd"
  number: 1.44
- binder: "2-in-1 DARPin 18 (SEQ ID NO: 11) (designed binder, N4C mono-domain; purified by its His-tag) DLDKKLLEAARAGQDDEVRILLKAGADVNAKDSTGWTPLHLAAPWGHPEIVEVLLKAGADVNAKDFQGWTPLHLAAAAGHLEIVEVLLKAGADVNAKDVYGWTPLHIAAASGHLEIVEVLLKAGADVNAKDWLGWTPLHLAASHGHLEIVEVLLKAGADVNAQDKSGKTPADLAARAGHQDIAEVLQKAA"
  reported-metric: "Kd"
  number: 1.7
- binder: "2-in-1 DARPin 13 (SEQ ID NO: 8) (designed binder, N3C mono-domain; purified by its His-tag) DLDKKLLEAARAGQDDEVRILLKAGADVNAKDSTGWTPLHLAAPWGHPEIVEVLLKAGADVNAKDFYGWTPLHLAAAAGHLEIVEVLLKAGADVNAKDWLGWTPLHLAASHGHLEIVEVLLKAGADVNAQDKSGKTPADLAARAGHQDIAEVLQKAA"
  reported-metric: "Kd"
  number: 11.5
- binder: "2-in-1 DARPin 17 (SEQ ID NO: 10) (designed binder, N3C mono-domain; purified by its His-tag) DLGKKLLQAARAGQLDEVRELLKAGADVNAKDSTGWTPLHLAAPWGHPEIVEVLLKAGADVNAKDFQGWTPLHLAAAAGHLEIVEVLLKAGADVNAKDWLGWTPLHLAASHGHLEIVEVLLKAGADVNAQDKSGKTPADLAARAGHQDIAEVLQKAA"
  reported-metric: "Kd"
  number: 392

Quick note, Kd for 2-in-1 DARPin 19 (SEQ ID NO: 12) (designed binder, N4C mono-domain; purified by its His-tag) DLDKKLLEAARAGQDDEVRILLKAGADVNAKDSTGWTPLHLAAPWGHPEIVEVLLKAGADVNAKDFKGWTPLHLAAAAGHLEIVEVLLKAGADVNAKDVYGWTPLHLAAAAGHLEIVEVLLKAGADVNAKDWLGWTPLHLAASHGHLEIVEVLLKAGADVNAQDKSGKTPADLAARAGHQDIAEVLQKAA landed at 0.44
